# key: entry, value: solubility at 20 h
assay: Aqueous solubility assay, miniaturized shake flask; assay type: physicochemical; settings: pH 6.5, Aqueous solubility PBS pH 6.5

Take a look at these entries with their results.
{"columns": ["MOLECULE", "solubility at 20 h"],
 "data": [
  ["COc1cc2c(cc1OCc1ccccc1)N(C(=O)c1nc3ccccc3[nH]1)CC21CCN(C)CC1", "≥ 200 µM"],
  ["COc1cc2c(cc1OCc1ccccc1)N(C(=O)C1CCCN(C)C1)CC21CCN(C)CC1 (stereo not drawn)", "180 µM"],
  ["COc1ccc(COc2cc3c(cc2OC)C2(CCN(C)CC2)CN3C(=O)c2cc3ccccc3[nH]2)cc1", "145 µM"],
  ["COc1cc2c(cc1OCc1ccccc1)N(c1ccncc1)CC21CCN(C)CC1", "195 µM"],
  ["COc1cc2c(cc1OCc1ccccc1)N(C(=O)c1cc3ccccc3[nH]1)CC21CCNCC1", "90 µM"]
]}

Consider the record given below.
Entry `CN1CCC2(CC1)CN(C(=O)c1cc3ccccc3[nH]1)c1ccccc12` , solubility at 20 h reported as 180 µM
